Test system: SNB-75 CNS
Assay: NCI-60 one-dose screen, 48 h (100 = growth as untreated, 0 = no growth, -100 = all killed)
Conditions: 10 µM unless noted
The panel holds about 83,000 compounds, 20% with a hit somewhere; the sample as a whole holds those more often.
assay endpoint: growth (%)

[
  {
    "compound": "NS(=O)(=O)c1cnccc1-n1ccc(=O)c(S(N)(=O)=O)c1",
    "assay endpoint": "growth",
    "units symbol": "%",
    "quantitative readout": 73.8
  },
  {
    "compound": "C=C1C(=O)O[C@H]2[C@H]1CC/C(COC(=O)/C=C\\C(=O)NCc1ccc(Cn3c(=O)sn(CCCC)c3=O)cc1)=C\\CC[C@@]1(C)O[C@@H]21",
    "assay endpoint": "growth",
    "units symbol": "%",
    "quantitative readout": -63.6
  },
  {
    "compound": "O[C@H]1CO[C@H]2[C@@H]1OC[C@@H]2Oc1ccc(Nc2ccnc(Nc3ccc(O[C@H]4CO[C@H]5[C@@H]4OC[C@@H]5O)c(Cl)c3)n2)cc1Cl",
    "assay endpoint": "growth",
    "units symbol": "%",
    "quantitative readout": -1.57
  },
  {
    "compound": "CCCCN(Cc1ccc(C(=O)NO)cc1)C(=O)Nc1ccc(OCCCCCCCCCn2cc(CCCCC(=O)N[C@H](C(=O)N3C[C@H](O)C[C@H]3C(=O)NCc3ccc(-c4scnc4C)cc3)C(C)(C)C)nn2)cc1",
    "assay endpoint": "growth",
    "units symbol": "%",
    "quantitative readout": 34.6
  },
  {
    "compound": "Cc1cc(Cl)nc(N(CCCNc2ccnc3cc(Cl)ccc23)Cc2ccccn2)n1",
    "assay endpoint": "growth",
    "units symbol": "%",
    "quantitative readout": 64.1
  },
  {
    "compound": "NC(N)=N/N=C(/c1ccccc1)c1ccc(N)cc1",
    "assay endpoint": "growth",
    "units symbol": "%",
    "quantitative readout": 122
  },
  {
    "compound": "CCCCCCN(CCCCCC)CC(O)c1cccc2ccc(Cl)cc12 (centres undefined)",
    "assay endpoint": "growth",
    "units symbol": "%",
    "quantitative readout": 116
  },
  {
    "compound": "Clc1cnc(Nc2ccc(OCCN3CCCC3)cc2)nc1NCc1ccco1",
    "assay endpoint": "growth",
    "units symbol": "%",
    "quantitative readout": -3.83
  },
  {
    "compound": "C/C(=N\\NC(N)=S)c1nc2ccc(Cl)cc2[nH]1",
    "assay endpoint": "growth",
    "units symbol": "%",
    "quantitative readout": 43.6
  }
]

----------
Tested on: MDA-MB-231 breast
Test: NCI-60 one-dose screen, 48 h
Settings: 10 µM unless noted
About 83,000 compounds went through this panel and 20% of them were active in at least one assay; those are over-represented in the sample as a whole. Activity calls are given as the source filed them. The calls were made as follows: active = growth percent below 10; inactive = the rest.
Outcome codes: 1 (active), -1 (inactive)

[
  {
    "compound": "Cc1ccc(/C(=N\\N=C(N)N)c2ccccc2)cc1",
    "label value": 1
  },
  {
    "compound": "COc1cc(C2CC(=O)Nc3n[nH]c(-c4ccccc4)c32)cc(OC)c1OC (stereo not given)",
    "label value": -1
  },
  {
    "compound": "CC1=NN(c2cccc(Cl)c2)C(=O)/C1=C\\c1cn(CC(O)CN2CCCCC2)c2ccccc12 (stereo not given)",
    "label value": -1
  },
  {
    "compound": "CCN(CC)CCCNC(=O)c1ccc(N)cc1O",
    "label value": -1
  },
  {
    "compound": "O=C(/C=C/C12c3ccccc3C(c3ccccc31)C1C(=O)N(c3ccc(Cl)cc3)C(=O)C12)c1ccccn1 (stereo not given)",
    "label value": 1
  },
  {
    "compound": "CN1CCN(C(=O)[C@@]2(C)CC[C@]3(C)CC[C@]4(C)C(=CC[C@@H]5[C@@]6(C)C/C(=C/c7ccncc7)C(=O)C(C)(C)[C@@H]6CC[C@]54C)[C@@H]3C2)CC1",
    "label value": -1
  },
  {
    "compound": "CCCCCCNCc1cc(C(C)(C)C)cc(CNCCCCCC)c1O",
    "label value": 1
  },
  {
    "compound": "CCOc1cccnc1/C=N/NC(N)=S",
    "label value": -1
  },
  {
    "compound": "O=c1[nH]c(NCc2nnnn2-c2ccc(Br)cc2)nc2sc3c(c12)CCCC3",
    "label value": -1
  },
  {
    "compound": "Cc1nc(Nc2ccc(NC(=S)Nc3ccccc3)cc2)nc2nc(SCc3ccccc3)[nH]c(=O)c12",
    "label value": -1
  },
  {
    "compound": "CCCCNC(=O)c1cc(NCc2cc(O)ccc2O)ccc1O",
    "label value": -1
  },
  {
    "compound": "Nc1c(C(=O)c2ccccc2)nnc2ncnn12",
    "label value": -1
  },
  {
    "compound": "Cc1nc(Nc2ccc(N)cc2)c2ccccc2n1",
    "label value": -1
  },
  {
    "compound": "OC(CBr)c1ccnc2ccccc12 (stereo not given)",
    "label value": -1
  },
  {
    "compound": "Cl.Fc1c[c-]c(-c2ccccn2)c(F)c1.[Pt].c1ccc(P(c2ccccc2)C([PH+](c2ccccc2)c2ccccc2)[PH+](c2ccccc2)c2ccccc2)cc1",
    "label value": 1
  },
  {
    "compound": "O=C1Nc2ccccc2/C1=N/N=C/c1ccc(OC2OC(CO)C(O)C(O)C2O)cc1 (stereo not given)",
    "label value": -1
  },
  {
    "compound": "CCn1c(Sc2nnc(Nc3ccccc3)s2)nc2c1c(=O)n(C)c(=O)n2C",
    "label value": -1
  },
  {
    "compound": "CCn1c(Sc2nnc(NC(=O)CSC(=S)N3CCCCC3)s2)nc2c1c(=O)n(C)c(=O)n2C",
    "label value": -1
  },
  {
    "compound": "N#Cc1c(-c2ccccc2)nc(SCC2CO2)nc1N1CCOCC1 (stereo not given)",
    "label value": -1
  },
  {
    "compound": "CCN(CC)CCOC(=O)Nc1ccccc1Cl",
    "label value": -1
  },
  {
    "compound": "C=CCN1C(=O)[C@]2(SC1=S)[C@H](c1cccc(Cl)c1)CN(C)[C@]21C(=O)NC2C=CC(Cl)=C[C@H]21 (stereo not given in full)",
    "label value": -1
  },
  {
    "compound": "O=C(O)c1ccc(CO)o1",
    "label value": -1
  },
  {
    "compound": "CCN(CCO)CC(=O)c1cc(Cl)cc(Cl)c1Cl",
    "label value": -1
  },
  {
    "compound": "C=CCO[C@H]1CO[C@H]2[C@@H]1OC[C@@H]2Oc1ccc(Nc2ccnc(Nc3ccc(O[C@H]4CO[C@H]5[C@@H]4OC[C@@H]5OCC=C)c(Cl)c3)n2)cc1Cl",
    "label value": 1
  },
  {
    "compound": "CCOC(=O)c1nnn(-c2ccccc2)c1C1=CN(C)CCC1",
    "label value": -1
  },
  {
    "compound": "O=C(NCc1cn(Cc2cccc(Oc3ccccc3)c2)nn1)c1cccnc1NCc1ccc(Cl)cc1",
    "label value": -1
  },
  {
    "compound": "CCn1c(Sc2nnc(NC(=O)CCN3CCCC3)s2)nc2c1c(=O)n(C)c(=O)n2C",
    "label value": -1
  },
  {
    "compound": "CCCCNCC(=O)Nc1ccc(C(=O)OCC)cc1",
    "label value": -1
  },
  {
    "compound": "O=C1N(c2ccccc2)C(=S)N[C@]12[C@H](c1ccccc1)C1CCCN1[C@]21C(=O)NC2C=CC(Cl)=C[C@H]21 (stereo not given in full)",
    "label value": -1
  },
  {
    "compound": "CN(C)c1ccc(/C=N/NC(=O)COc2cc(=O)n(C)c3ccccc23)cc1",
    "label value": -1
  },
  {
    "compound": "Cn1cc(-c2ccc3nc(-c4ccc(CC(=O)Nc5cc(C(C)(C)C)no5)cc4)cnc3c2)cn1",
    "label value": 1
  },
  {
    "compound": "O=C(c1ccccc1)c1ccc(Cl)c([N+](=O)[O-])c1",
    "label value": -1
  },
  {
    "compound": "COc1cc2c(O)n(CCCn3ccnc3)c3c4cnc5cccc(c(=O)c3c2cc1OC)c54",
    "label value": -1
  },
  {
    "compound": "CN(C)c1ccc2cc(-c3ccc(Cl)c(Cl)c3)c(N)nc2c1",
    "label value": -1
  },
  {
    "compound": "CC(C)CCC[C@@H](C)[C@H]1CCC2C3=CCn4c(=O)ccc(=O)n4C3CC[C@@]21C (stereo not given in full)",
    "label value": 1
  },
  {
    "compound": "CCOC(=O)c1cnn2c(-c3ccc(Cl)cc3)nc(NCc3ccccc3)nc12",
    "label value": -1
  },
  {
    "compound": "Oc1[nH]c2ccccc2c1/C=c1/cc2c(c(-c3ccc(F)cc3)n1)=Nc1ccccc1-2",
    "label value": 1
  },
  {
    "compound": "Nc1nc(I)c2ncn(C3OC(CO)C(O)C3O)c2n1 (stereo not given)",
    "label value": -1
  },
  {
    "compound": "CCCCS(=O)(=O)Oc1ccc(-c2nc(C)c(C(=O)OCC)s2)cc1C=O",
    "label value": -1
  },
  {
    "compound": "CN1CCC(=C2c3ccccc3C=Cc3ccccc32)CC1",
    "label value": 1
  }
]
